The binders listed here are annotated with their interaction score.
study.system: T1, 4H536-AA
T1 chain: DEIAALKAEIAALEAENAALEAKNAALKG
procedure.details: two-hybrid library CCmax;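 also: natural log of median RNA to DNA barcode read ratio; higher means stronger binding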
setup.conditions: mean of both orientations
measurement.name: interaction score

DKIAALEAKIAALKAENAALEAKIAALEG [4H2389-AA] = -0.282
DEIAALEAKNAALKAEIAALKAEIAALKG [4H458-AA] = -1.46
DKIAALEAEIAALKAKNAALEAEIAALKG [4H2162-AA] = -1.2
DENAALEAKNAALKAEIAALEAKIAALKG [4H1478-AA] = -1.16
DKIAALKAEIAALKAENAALKAEIAALEG [4H2649-AA] = 0.807
DKIAALKAENAALEAKIAALEAKIAALEG [4H2725-AA] = -1.71
DKNAALKAENAALEAKIAALKAEIAALEG [4H3753-AA] = -1.2
